Can you tell me EC50 for the items I'm about to list?
Assayed target: S1P3 (Homo sapiens (Human))
Measurement notes: 35S-GTPγS binding assay, S1P3 membranes
Stated conditions: membranes from CHO cells expressing S1P3; read-out: S1P3 GTPyS EC50
Express it in µM; write the number only.

The measured EC50 associated with CCCN(c1cc(C(=O)Nc2ccc(S(N)(=O)=O)cc2C)ncn1)C1CCCCC1 reads 1.99

The measured EC50 associated with Cc1cc(S(N)(=O)=O)ccc1NC(=O)c1cc(N(CC2CC2)C2CCCCC2)ncn1 reads 47.5

The measured EC50 associated with O=C(Nc1ccnc2ccccc12)c1cc(NC2CCCCC2)ncn1 reads 5.23

The measured EC50 associated with COCCNS(=O)(=O)c1ccc(NC(=O)c2cc(N(CC3CC3)C3CCCCC3)ncn2)c(C)c1 reads 3.3

---

Assayed target: S1P1 (Homo sapiens (Human), UniProt P21453)
Sequence (P21453 whole entry, species assumed): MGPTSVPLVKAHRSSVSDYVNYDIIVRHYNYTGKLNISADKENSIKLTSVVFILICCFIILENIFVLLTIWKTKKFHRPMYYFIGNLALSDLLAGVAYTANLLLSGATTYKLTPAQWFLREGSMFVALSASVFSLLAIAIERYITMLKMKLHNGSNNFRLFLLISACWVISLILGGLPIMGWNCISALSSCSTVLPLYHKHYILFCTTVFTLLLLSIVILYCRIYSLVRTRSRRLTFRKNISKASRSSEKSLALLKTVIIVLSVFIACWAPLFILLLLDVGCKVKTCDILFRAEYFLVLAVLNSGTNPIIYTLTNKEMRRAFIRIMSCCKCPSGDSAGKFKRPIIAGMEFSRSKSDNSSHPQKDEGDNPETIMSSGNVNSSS
Measurement notes: 35S-GTPγS binding assay, S1P1 membranes
Stated conditions: membranes from CHO cells expressing S1P1; read-out: S1P1 GTPyS EC50
Method: Membranes were prepared from CHO cells expressing S1P1 or S1P3 for use in ligand and 355-GTPγS binding studies. […] Binding was performed for 60 min at room temperature on a shaker and bound radioactivity was measured on a PerkinElmer 1450 MicroBeta counter. Specific binding was calculated by subtracting remaining radioactivity in the presence of 1000-fold excess of unlabeled S1P. Binding data were analyzed using the GraphPad Prism program. […]
Can you tell me EC50 for the items I'm about to list?
Express it in nM; write the number only.

The measured EC50 associated with CCCN(CC1CC1)c1cc(C(=O)Nc2ccc3[nH]cnc3c2)ncn1 reads 2760

The measured EC50 associated with O=C(Nc1ccnc2ccccc12)c1cc(N(CC2CC2)C2CCCCC2)ncn1 reads 19

The measured EC50 associated with Cc1cc(S(=O)(=O)NCC(=O)O)ccc1NC(=O)c1cc(N(CC2CC2)C2CCCCC2)ncn1 reads 12

The measured EC50 associated with CCCN(CC1CC1)c1cc(C(=O)Nc2ccc(-n3cncn3)cc2)ncn1 reads 279

The measured EC50 associated with CCCN(CCC)c1cc(C(=O)Nc2ccc(O)cc2)ncn1 reads 370

The measured EC50 associated with CC(C)(C)OC(=O)CNCc1ccc(NC(=O)c2cc(N(CC3CC3)C3CCCCC3)ncn2)cc1 reads 724

The measured EC50 associated with CCCN(CC1CC1)c1cc(C(=O)Nc2ccc3[nH]ncc3c2)ncn1 reads 13

The measured EC50 associated with Cc1cc(S(N)(=O)=O)ccc1NC(=O)c1cc(N(C)C2CCCCC2)ncn1 reads 65

---

Assayed target: S1P1 (Homo sapiens (Human), UniProt P21453)
Measurement notes: 35S-GTPγS binding assay, S1P1 membranes
Format: biochemical
Stated conditions: membranes from CHO cells expressing S1P1; read-out: S1P1 GTPyS EC50
Binary label based on EC50 with cut-off 500 nM: below gives yes (1), not below gives no (0).

## Task # check: EC50 < 500 nM for CCCN(CCC)c1cc(C(=O)Nc2ccc(S(N)(=O)=O)cc2C)ncn1 [Example 1-57]
## Result yes (1)

## Task # check: EC50 < 500 nM for CCCN(CC1CC1)c1cc(C(=O)Nc2ccc(S(=O)(=O)N(C)CC(=O)O)cc2C)ncn1 [Example 1-102]
## Result no (0)

## Task # check: EC50 < 500 nM for COCCN(c1cc(C(=O)Nc2ccc3[nH]ncc3c2)ncn1)C1CCCCC1 [Example 1-66]
## Result yes (1)

## Task # check: EC50 < 500 nM for NS(=O)(=O)c1ccc(NC(=O)c2cc(NC3CCCCC3)ncn2)cc1 [Example 1-17]
## Result no (0)

## Task # check: EC50 < 500 nM for CCCN(CC1CC1)c1cc(C(=O)Nc2ccc(CN3CCC(C(=O)O)CC3)cc2C)ncn1 [Example 1-138]
## Result yes (1)

## Task # check: EC50 < 500 nM for CCCN(CC1CC1)c1cc(C(=O)Nc2ccc(CNC(C)C(=O)O)cc2C)ncn1 (centres unmarked) [Example 1-104]
## Result no (0)

## Task # check: EC50 < 500 nM for CCCN(CC1CC1)c1cc(C(=O)Nc2cc3cn[nH]c3cc2C)ncn1 [Example 1-71]
## Result yes (1)

---

Assayed target: S1P1 (Homo sapiens (Human), UniProt P21453)
Measurement notes: 35S-GTPγS binding assay, S1P1 membranes
Stated conditions: membranes from CHO cells expressing S1P1; read-out: S1P1 GTPyS EC50
Can you tell me pEC50 for the items I'm about to list?
pEC50 is defined as minus the log10 of a concentration measured in mol/L.

Sample CN(c1cc(C(=O)Nc2ccnc3ccccc23)ncn1)C1CCCCC1 , system: S1P1 (Homo sapiens (Human), UniProt P21453). Its pEC50 is 5.87

Sample CCCN(CC1CC1)c1cc(C(=O)Nc2ccc(S(=O)(=O)CCCC(=O)O)cc2)ncn1 , system: S1P1 (Homo sapiens (Human), UniProt P21453). Its pEC50 is 5.82

Sample Cc1cc(O)ccc1NC(=O)c1cc(NC2CCCCCC2)ncn1 , system: S1P1 (Homo sapiens (Human), UniProt P21453). Its pEC50 is 6.01

---

Can you tell me EC50 for the items I'm about to list?
Assayed target: S1P3 (Homo sapiens (Human), UniProt Q99500)
Sequence (Q99500 whole entry, species assumed): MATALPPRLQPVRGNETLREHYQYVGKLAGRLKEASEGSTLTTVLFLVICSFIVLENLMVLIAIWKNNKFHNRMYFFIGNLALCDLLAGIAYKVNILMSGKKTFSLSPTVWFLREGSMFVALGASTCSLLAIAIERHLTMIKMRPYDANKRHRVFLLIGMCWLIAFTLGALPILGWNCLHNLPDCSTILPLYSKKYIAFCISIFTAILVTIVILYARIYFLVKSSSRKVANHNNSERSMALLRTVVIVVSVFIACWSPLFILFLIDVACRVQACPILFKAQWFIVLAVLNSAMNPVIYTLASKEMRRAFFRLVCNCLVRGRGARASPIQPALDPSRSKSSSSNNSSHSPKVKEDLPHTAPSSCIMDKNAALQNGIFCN
Measurement notes: 35S-GTPγS binding assay, S1P3 membranes
Stated conditions: membranes from CHO cells expressing S1P3; read-out: S1P3 GTPyS EC50

Sample Cc1cc(S(N)(=O)=O)ccc1NC(=O)c1cc(N(CC(C)C)C2CCCC2)ncn1 , system: S1P3 (Homo sapiens (Human), UniProt Q99500). Its EC50 is > 20 µM

Sample CCCN(CC1CC1)c1cc(C(=O)Nc2cc3cn[nH]c3cc2C)ncn1 , system: S1P3 (Homo sapiens (Human), UniProt Q99500). Its EC50 is > 20 µM

Sample CCCN(CCC)c1cc(C(=O)Nc2ccc(S(N)(=O)=O)cc2C)ncn1 , system: S1P3 (Homo sapiens (Human), UniProt Q99500). Its EC50 is > 20 µM

Sample CN(c1cc(C(=O)Nc2ccc(S(=O)(=O)NCC(O)CO)cc2)ncn1)C1CCCCC1 (stereo not drawn) , system: S1P3 (Homo sapiens (Human), UniProt Q99500). Its EC50 is > 20 µM

Sample CCCN(CC1CC1)c1cc(C(=O)Nc2ccc3[nH]ncc3c2)ncn1 , system: S1P3 (Homo sapiens (Human), UniProt Q99500). Its EC50 is 0.416 µM

Sample CCCN(CC1CC1)c1cc(C(=O)Nc2cccc3[nH]ccc23)ncn1 , system: S1P3 (Homo sapiens (Human), UniProt Q99500). Its EC50 is > 20 µM

Sample Cc1cc(O)ccc1NC(=O)c1cc(N(CC2CC2)C2CCCCC2)ncn1 , system: S1P3 (Homo sapiens (Human), UniProt Q99500). Its EC50 is 100 µM

Sample O=C(Nc1ccc(CCO)cc1)c1cc(NC2CCCCC2)ncn1 , system: S1P3 (Homo sapiens (Human), UniProt Q99500). Its EC50 is > 30 µM

Sample Cc1cc(S(=O)(=O)NCC(=O)O)ccc1NC(=O)c1cc(N(CC2CC2)C2CCCCC2)ncn1 , system: S1P3 (Homo sapiens (Human), UniProt Q99500). Its EC50 is 0.259 µM

Sample CN(c1cc(C(=O)Nc2ccc3[nH]ncc3c2)ncn1)C1CCCCC1 , system: S1P3 (Homo sapiens (Human), UniProt Q99500). Its EC50 is > 20 µM

Sample CCCN(CCC)c1cc(C(=O)Nc2ccc(O)cc2)ncn1 , system: S1P3 (Homo sapiens (Human), UniProt Q99500). Its EC50 is 2.32 µM

Sample O=C(Nc1cccc2[nH]ccc12)c1cc(N(CC2CC2)C2CCCCC2)ncn1 , system: S1P3 (Homo sapiens (Human), UniProt Q99500). Its EC50 is > 20 µM

Sample O=C(Nc1ccc(O)cc1C(F)(F)F)c1cc(NC2CCCCC2)ncn1 , system: S1P3 (Homo sapiens (Human), UniProt Q99500). Its EC50 is > 30 µM

Sample O=C(Nc1ccc2[nH]ncc2c1)c1cc(N(CC2CC2)C2CCCCC2)ncn1 , system: S1P3 (Homo sapiens (Human), UniProt Q99500). Its EC50 is > 20 µM

Sample O=C(Nc1ccc(CN2CC(C(=O)O)C2)cc1)c1cc(N(CC2CC2)C2CCCCC2)ncn1 , system: S1P3 (Homo sapiens (Human), UniProt Q99500). Its EC50 is 0.236 µM

Sample CCN(c1cc(C(=O)Nc2ccc(O)cc2C)ncn1)C1CCCCC1 , system: S1P3 (Homo sapiens (Human), UniProt Q99500). Its EC50 is > 30 µM

Sample Cc1cc(S(=O)(=O)NCCC(=O)O)ccc1NC(=O)c1cc(N(CC2CC2)C2CCCCC2)ncn1 , system: S1P3 (Homo sapiens (Human), UniProt Q99500). Its EC50 is 0.062 µM

Sample CCC(C)Oc1cc(C(=O)Nc2ccc(O)cc2C)ncn1 (stereo not drawn) , system: S1P3 (Homo sapiens (Human), UniProt Q99500). Its EC50 is > 20 µM

Sample CN(c1cc(C(=O)Nc2ccc3c(c2)CC(=O)N3)ncn1)C1CCCCC1 , system: S1P3 (Homo sapiens (Human), UniProt Q99500). Its EC50 is 32 µM

Sample Cc1cc(O)ccc1NC(=O)c1cc(NC2CCCCC2)ncn1 , system: S1P3 (Homo sapiens (Human), UniProt Q99500). Its EC50 is > 30 µM

Sample CCCN(CC1CC1)c1cc(C(=O)Nc2ccc(CNCC(=O)O)cc2C)ncn1 , system: S1P3 (Homo sapiens (Human), UniProt Q99500). Its EC50 is > 20 µM

Sample Cc1cc(O)ccc1NC(=O)c1cc(OC2CCCCC2)ncn1 , system: S1P3 (Homo sapiens (Human), UniProt Q99500). Its EC50 is > 20 µM

Sample CCCN(CC1CC1)c1cc(C(=O)Nc2ccc(S(N)(=O)=O)cc2C)ncn1 , system: S1P3 (Homo sapiens (Human), UniProt Q99500). Its EC50 is > 20 µM

Sample O=C(Nc1ccc(O)cc1F)c1cc(NC2CCCCC2)ncn1 , system: S1P3 (Homo sapiens (Human), UniProt Q99500). Its EC50 is > 30 µM
